Values from patent US20250250357A1

study_system: T1, human MSLN-FL-his protein (human, UniProt Q13421 296-580)
T1 construct: also called hMSLN-FL-his; human MSLN full-length protein; not shown: His tag
T1 sequence (Q13421 other isoform, or with tags, fused parts or gaps): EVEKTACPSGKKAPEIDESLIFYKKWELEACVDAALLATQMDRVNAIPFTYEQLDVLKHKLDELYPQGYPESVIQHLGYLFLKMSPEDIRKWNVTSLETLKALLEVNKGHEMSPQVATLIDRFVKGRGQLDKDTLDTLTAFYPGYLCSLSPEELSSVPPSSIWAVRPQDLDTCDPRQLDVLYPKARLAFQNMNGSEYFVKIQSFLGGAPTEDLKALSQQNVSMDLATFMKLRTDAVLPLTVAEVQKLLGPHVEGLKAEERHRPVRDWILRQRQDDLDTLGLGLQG
procedure_summary: ELISA, coated antigen; antibody 0.001 nM
measured_quantity: OD450
# respond with the number and nothing more

binder	measured_quantity	observed_result
S009-F1.2.12 human-murine chimeric antibody (antibody, human IgG1, kappa, V domains shown, Chimeric IgG1/kappa) VH: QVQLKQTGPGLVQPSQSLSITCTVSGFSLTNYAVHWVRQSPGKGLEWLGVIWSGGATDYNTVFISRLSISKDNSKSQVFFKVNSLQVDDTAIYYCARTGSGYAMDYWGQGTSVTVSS VL: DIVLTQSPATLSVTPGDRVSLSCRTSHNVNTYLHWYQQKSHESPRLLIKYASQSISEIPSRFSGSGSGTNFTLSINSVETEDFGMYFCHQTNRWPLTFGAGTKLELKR	OD450	0.11

Please look at the following binder next.
Requested read-out: OD450. Entry: S009-F1.25.10 human-murine chimeric antibody (antibody, human IgG1, kappa, V domains shown, Chimeric IgG1/kappa) VH: EVQLQQSGPELVKPGASLKISCKASGYSFTDYTMNWVKQSHGKNLEWIGLFNPYNGGISYNQKFKGKATLTVDKSSNTAYMELLSLTSDDSAVYFCARDGRGGFYAMDYWGQGTSVTVSS VL: DIQMTQTTSSLSASLGDRVTISCRASQDISIYLNWYQQKPDGPVKLLIYYTSRLHSGVPSRFSGSGSGTDFSLTISNLEQEDIATYFCQQGYTLPPWTFGGGTKLEIKR
0.1
